# ASSAY_TEXT: Lipophilicity, log kw of compound by RP-HPLC
# Assay type: physicochemical
EXPERIMENTAL_ENDPOINT: logKw

Take a look at these entries with their results.
>>> result("O=C1CC2(CCCC2)C(=O)N1Nc1ccc(Br)cc1")
2.115
>>> result("O=C1CC(C2CCCCC2)C(=O)N1Nc1ccccc1Cl (stereo not drawn)")
2.536
>>> result("CC1CCCCC12CC(=O)N(Nc1ccc(Cl)cc1Cl)C2=O (stereo not drawn)")
2.847

[ask] Sample CC1CCC2(CC1)CC(=O)N(Nc1ccc(Cl)cc1Cl)C2=O (stereo not drawn) — what was its logKw?
[reply] 2.977

[ask] Sample CC1CCCCC12CC(=O)N(Nc1ccc(Br)cc1)C2=O (stereo not drawn) — what was its logKw?
[reply] 2.561

[ask] Sample CC1CCCCC12CC(=O)N(Nc1ccccc1Cl)C2=O (stereo not drawn) — what was its logKw?
[reply] 2.515

[ask] Sample CC1CCCC2(CC(=O)N(Nc3ccc(Cl)cc3Cl)C2=O)C1 (stereo not drawn) — what was its logKw?
[reply] 2.976

[ask] Sample O=C1CC2(CCCC2)C(=O)N1Nc1ccccc1Cl — what was its logKw?
[reply] 2.095

[ask] Sample O=C1CC2(CCCC2)C(=O)N1Nc1ccc(Cl)cc1Cl — what was its logKw?
[reply] 2.419

[ask] Sample O=C1CC2(CCCCC2)C(=O)N1Nc1ccccc1Cl — what was its logKw?
[reply] 2.322

[ask] Sample O=C1CC2(CCCCC2)C(=O)N1Nc1ccc(Br)cc1 — what was its logKw?
[reply] 2.337

[ask] Sample O=C1CC2(CCCCC2)C(=O)N1Nc1ccc(Cl)cc1Cl — what was its logKw?
[reply] 2.634

[ask] Sample O=C1CC(C2CCCCC2)C(=O)N1Nc1ccc(Cl)cc1Cl (stereo not drawn) — what was its logKw?
[reply] 2.896
